System: HS 578T breast
Test: NCI tumour cell line growth inhibition, 48 h

[
  {
    "molecule": "CN(Cc1cccc2ccsc12)/N=C\\c1ccc(Cl)cc1",
    "readout-unit": "µM",
    "value-operator": ">",
    "TGI": 100
  },
  {
    "molecule": "Cc1nc2ccc(N=Nc3c(C)noc3C)cc2[nH]1",
    "readout-unit": "µM",
    "value-operator": "=",
    "TGI": 58.4
  },
  {
    "molecule": "CCCCCCC1OC23OC1CCC2C(O)CCC3O (stereo not given)",
    "readout-unit": "µM",
    "value-operator": ">",
    "TGI": 100
  },
  {
    "molecule": "COC(=O)C(=O)C(C(=O)C(=O)Nc1cccc(OC)c1)c1nc2ccc(Cl)cc2[nH]c1=O (stereo not given)",
    "readout-unit": "µM",
    "value-operator": ">",
    "TGI": 100
  },
  {
    "molecule": "C/C(=C\\c1csc(C)n1)[C@@H]1C[C@@H]2O[C@]2(C)CCC[C@H](C)[C@H](O)[C@@H](C)C(=O)C(C)(C)[C@@H](O)CC(=O)N1",
    "readout-unit": "µM",
    "value-operator": "=",
    "TGI": 0.000226
  },
  {
    "molecule": "CC(C)c1ccc2c(c1)CCC1C2CCCC1(C)NCc1ccccc1 (stereo not given)",
    "readout-unit": "µM",
    "value-operator": "=",
    "TGI": 23.7
  },
  {
    "molecule": "O=C(CC1(O)C(=O)Nc2c(Cl)cc(Cl)cc21)c1cccc([N+](=O)[O-])c1 (stereo not given)",
    "readout-unit": "µM",
    "value-operator": "=",
    "TGI": 94.9
  },
  {
    "molecule": "O=C1NC(=NCc2cccs2)O/C1=C\\c1ccc2ncccc2c1",
    "readout-unit": "µM",
    "value-operator": "=",
    "TGI": 14.8
  },
  {
    "molecule": "Cc1cc2nnn(C3CCCCO3)c2cc1C (stereo not given)",
    "readout-unit": "µM",
    "value-operator": ">",
    "TGI": 100
  },
  {
    "molecule": "CC(C)(C)n1c(=O)n2c(-c3ccccc3)c(-c3ccccc3)n2c1=O",
    "readout-unit": "µM",
    "value-operator": ">",
    "TGI": 100
  }
]
